target_entity: VTCN1, Q7Z7D3
Sequence (Q7Z7D3 whole entry): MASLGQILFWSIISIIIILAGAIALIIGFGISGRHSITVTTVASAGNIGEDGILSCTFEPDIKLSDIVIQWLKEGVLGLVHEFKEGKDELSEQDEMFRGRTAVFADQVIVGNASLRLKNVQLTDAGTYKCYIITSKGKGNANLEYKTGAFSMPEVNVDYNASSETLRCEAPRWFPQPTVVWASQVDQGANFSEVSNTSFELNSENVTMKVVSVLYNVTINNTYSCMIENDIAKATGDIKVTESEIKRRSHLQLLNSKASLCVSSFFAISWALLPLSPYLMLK
reported_endpoint: binding in a display sort

>  <binder>
design_601_c3fd07b4-2f34-4ad8-bd4e-2749faf628eb_72_dldesign_0_cycle1_af2pred (protein) AAAAAAKKAEADATQLDLIAKSTEAIKDKVSPETVADVFAPAAAAYEKAAKLWSGNPAKAAEFKAKAKEMKAKYEKAKKEAE

>  <binding in a display sort>
not found (inactive)

$$$$
>  <binder>
design_598_15ab41e9-cad4-4381-8935-81f74b313fe8_1538_dldesign_0_cycle1_af2pred (protein) KEEAKKKVEEARKLVEEAKKLIEKGEYEKGLKLAEEAAELAHKTSVKYGAGEAEKVYKEASKVISLAWAKLAEAKK

>  <binding in a display sort>
not found (inactive)

$$$$
>  <binder>
design_601_c3fd07b4-2f34-4ad8-bd4e-2749faf628eb_352_dldesign_0_cycle1_af2pred (protein) AKEDQEASSEMMRYLTKAGKLAKEIGEEEYEKALKEREKVLELSVEDPKKGLEAAKEVLKEYEEKYKKAEEEKKA

>  <binding in a display sort>
not found (inactive)

$$$$
>  <binder>
design_609_7ee6ce64-4629-41e8-bcb4-ba0da017284d_367_dldesign_0_cycle1_af2pred (protein) KRKEEQLEKLKKLAEELEKKAKEYEKDKNFKEVAKAYKEAAKKLKEAAKTGDSKVAHEARQKAAEAEWLEKKAK

>  <binding in a display sort>
not found (inactive)

$$$$

Query (binder): design_596_3e5f537c-0703-45f0-993f-ff416531349a_1563_dldesign_0_cycle1_af2pred (protein) AEKHLKEAKKLAEEAKKLAEEAEKDPSTAPEKAKKAEEAARKAREEAKKAAEADPSVAPEAAKAAQEAYEARAVAEAVANRYLK ; field requested: binding in a display sort
not found (inactive)

The reported numbers originate from paper PMC13494018.
